// values below are reported MIC
Tested on: Pullularia pullulans
Test: minimal inhibiting concentration (MIC), filter disc agar plate test
Assay type: cell-based
Settings: P. pullulans; Sabouraud agar, three days incubation
Quantity Name: MIC

molecule="OCCN1CSC(=S)N(CCO)C1 [B, reference compound]" experimental_value="0.01 % conc."
molecule=CCOCCCN1CSC(=S)N(CCCOCC)C1 experimental_value="< 0.003 % conc."
molecule="S=C1SCN(Cc2ccccc2)CN1Cc1ccccc1 [A, reference compound]" experimental_value="> 1 % conc."
molecule=COCCCN1CSC(=S)N(CCCOC)C1 experimental_value="0.005 % conc."
molecule=COCCN1CSC(=S)N(CCOC)C1 experimental_value="0.05 % conc."
